Entries and their IC50
Target: UniProtKB P35346
Sequence (P35346 whole entry): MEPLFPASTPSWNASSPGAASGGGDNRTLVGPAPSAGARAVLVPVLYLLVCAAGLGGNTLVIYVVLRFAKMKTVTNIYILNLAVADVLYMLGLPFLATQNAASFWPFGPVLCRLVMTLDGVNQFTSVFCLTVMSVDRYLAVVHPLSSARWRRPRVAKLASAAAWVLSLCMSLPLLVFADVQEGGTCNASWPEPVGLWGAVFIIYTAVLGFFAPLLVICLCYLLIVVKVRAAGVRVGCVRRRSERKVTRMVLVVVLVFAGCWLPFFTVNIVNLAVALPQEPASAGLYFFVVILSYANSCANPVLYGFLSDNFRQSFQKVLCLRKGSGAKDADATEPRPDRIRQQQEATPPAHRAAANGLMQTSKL
Experiment: Inositol phosphate accumulation assay (IP1 HTRF, antagonist mode)
Conditions: CHO-K1 cells co-expressing human SSTR5 with Gqi5, SST28 agonist at concentration generating 90% of full activation

Some solved entries appear below for comparison.
Give its IC50 value. Item: `CCOc1cc(C(=O)OC)c(C2CC2)cc1CN1CCC2(CC1)CN(c1ccc(C(=O)NCCOCCO)cc1)C(=O)N2`
100 to 1000 nM

Next entry: `CCOc1cc(-c2ccc(F)cc2)c(C2CC2)cc1CN1CCC2(CC1)CN(c1ccc(C(=O)NCCCS(N)(=O)=O)cc1)C(=O)O2`
≤ 100 nM

Further cases:
Fill blank: measured IC50 of the molecule `CCOc1cc(-c2ccc(F)cc2)c(C2CC2)cc1CN1CCC2(CC1)CN(c1ccc(C(=O)NCCOCCO)cc1)S(=O)(=O)N2` is ____.
≤ 100 nM
